testedSystem: SIRT1 (Homo sapiens, UniProt Q96EB6)
assayInfo: Mass spectrometry based assay to identify modulators of SIRT1 activity (deacetylation of p53-based acetylated peptide substrate)
Assay type: biochemical
conditionNotes: 25 min, SIRT1 activation, read-out: % FOLD ACT. (percent maximum fold activation)
measurementLabel: Emax

Some solved entries appear below for comparison.
- O=C(Nc1ccc2nccnc2c1)N1CCCOc2ccc(-c3cccc(Cl)c3)nc21 [Compound 881]: > 200%
- Cc1cccnc1NC(=O)N1CCOc2ccc(-c3cccc(C(F)(F)F)c3)nc21 [Compound 569]: ≤ 200%
- O=C(Nc1ccncc1)N1CCCOc2ccc(-c3cccc(C(F)(F)F)c3)nc21 [Compound 558]: > 200%
- CC1(C)CN(C(=O)Nc2ccccn2)c2nc(-c3cccc(F)c3)ccc2O1 [Compound 760]: > 200%
- O=C(Nc1cccc(OC[C@@H](O)CO)n1)N1CCOc2ccc(-c3cccc(C(F)(F)F)c3)nc21 [Compound 571]: > 200%

Provide the documented Emax with SIRT1 (Homo sapiens, UniProt Q96EB6) as the system for O=C1CCCN(C(=O)Nc2ccccn2)c2nc(-c3cccc(Cl)c3)ccc21 [Compound 768]
> 200%

Provide the documented Emax with SIRT1 (Homo sapiens, UniProt Q96EB6) as the system for O=C(Nc1ccc(F)cn1)N1CCOc2ccc(-c3cccc(C(F)(F)F)c3)nc21 [Compound 566]
> 200%

Provide the documented Emax with SIRT1 (Homo sapiens, UniProt Q96EB6) as the system for O=C(Nc1ccnc(N2CCC2)c1)N1CCOc2ncc(-c3cccc(C(F)(F)F)c3)nc21 [Compound 748]
> 200%

Provide the documented Emax with SIRT1 (Homo sapiens, UniProt Q96EB6) as the system for Cc1csc(NC(=O)N2CCCc3ccc(-c4cccc(C(F)(F)F)c4)nc32)n1 [Compound 588]
> 200%

Provide the documented Emax with SIRT1 (Homo sapiens, UniProt Q96EB6) as the system for O=C(c1ccnc(OCC(O)CO)c1)N1CCOc2ccc(-c3cccc(C(F)(F)F)c3)nc21 (stereo not drawn) [Compound 518]
≤ 200%

Provide the documented Emax with SIRT1 (Homo sapiens, UniProt Q96EB6) as the system for O=C1CCCN(C(=O)Nc2cccnc2)c2nc(-c3cccc(C(F)(F)F)c3)ccc21 [Compound 829]
> 200%

----------
testedSystem: SIRT1 (Homo sapiens, UniProt Q96EB6)
Sequence (Q96EB6 1-747): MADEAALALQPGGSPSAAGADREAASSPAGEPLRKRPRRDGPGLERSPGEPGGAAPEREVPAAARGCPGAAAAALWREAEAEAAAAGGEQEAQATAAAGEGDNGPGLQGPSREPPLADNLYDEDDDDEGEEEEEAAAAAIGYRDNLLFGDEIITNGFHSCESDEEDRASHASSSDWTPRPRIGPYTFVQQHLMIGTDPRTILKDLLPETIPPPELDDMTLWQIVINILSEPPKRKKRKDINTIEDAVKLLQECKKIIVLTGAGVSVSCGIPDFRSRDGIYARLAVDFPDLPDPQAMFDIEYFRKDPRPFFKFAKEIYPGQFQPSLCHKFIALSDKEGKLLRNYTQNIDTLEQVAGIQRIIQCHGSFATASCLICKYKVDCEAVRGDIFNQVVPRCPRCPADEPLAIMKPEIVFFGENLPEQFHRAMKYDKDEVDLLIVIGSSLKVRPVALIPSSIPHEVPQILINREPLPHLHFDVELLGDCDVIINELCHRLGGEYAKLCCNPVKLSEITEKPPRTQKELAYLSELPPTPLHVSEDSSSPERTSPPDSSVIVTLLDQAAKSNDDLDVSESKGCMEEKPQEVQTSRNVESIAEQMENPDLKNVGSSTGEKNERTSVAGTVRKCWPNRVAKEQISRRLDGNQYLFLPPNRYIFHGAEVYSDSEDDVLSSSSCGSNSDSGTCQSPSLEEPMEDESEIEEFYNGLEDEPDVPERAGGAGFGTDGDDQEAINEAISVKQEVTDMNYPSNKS
assayInfo: Mass spectrometry based assay to identify modulators of SIRT1 activity (deacetylation of p53-based acetylated peptide substrate)
Format: biochemical
conditionNotes: 25 min, SIRT1 activation, read-out: % FOLD ACT. (percent maximum fold activation)
Here the recorded Emax is given for each entry.

Some solved entries appear below for comparison.
• O=C(Nc1ccncc1)N1CCOc2ccc(-c3cccc(C(F)(F)F)c3)nc21 = > 200%
• Cc1ncccc1NC(=O)N1CCOc2ccc(-c3cccc(C(F)(F)F)c3)nc21 = ≤ 200%
• Cc1cc(OCC(O)CO)nc(NC(=O)N2CCCc3ccc(-c4cccc(C(F)(F)F)c4)nc32)n1 (centres unmarked) = > 200%
• CC1(C)CN(C(=O)Nc2cccnc2)c2nc(-c3cccc(CN4CCCC4)c3)ccc2O1 = > 200%

As a next step, examine the compound that follows.
Fill in the blank: the reported Emax of Cc1ccnc(NC(=O)N2CCCOc3ccc(-c4cccc(Cl)c4)nc32)c1 is ____.
> 200%

----------
testedSystem: SIRT1 (Homo sapiens)
assayInfo: Mass spectrometry based assay to identify modulators of SIRT1 activity (deacetylation of p53-based acetylated peptide substrate)
Assay type: biochemical
conditionNotes: 25 min, SIRT1 activation, read-out: % FOLD ACT. (percent maximum fold activation)
measurementLabel: Emax

Some solved entries appear below for comparison.
- O=C(Nc1ccnc(OC[C@H](O)CO)n1)N1CCOc2ccc(-c3cccc(C(F)(F)F)c3)nc21: ≤ 200%
- O=C(Nc1ccnc(N2CCCC2)c1)N1CCOc2ccc(-c3cccc(C(F)(F)F)c3)nc21: > 200%
- CC1(C)CN(C(=O)Nc2ccncc2)c2nc(-c3cccc(C(F)(F)F)c3)ccc2O1: > 200%
- CN1C(=O)CN(C(=O)Nc2nccs2)c2nc(-c3cccc(C(F)(F)F)c3)ccc21: ≤ 200%
- O=C(Nc1ccncc1)N1CCc2ccc(-c3cccc(C(F)(F)F)c3)nc21: > 200%

As a next step, examine the compound that follows.
Fill in the blank: the reported Emax of COc1nccc(NC(=O)N2CCCC(=O)c3ccc(-c4cccc(C(F)(F)F)c4)nc32)n1 is ____.
> 200%

----------
testedSystem: SIRT1 (Homo sapiens, UniProt Q96EB6)
assayInfo: Mass spectrometry based assay to identify modulators of SIRT1 activity (deacetylation of p53-based acetylated peptide substrate)
Assay type: biochemical
conditionNotes: 25 min, SIRT1 activation, read-out: % FOLD ACT. (percent maximum fold activation)
measurementLabel: Emax

- Cc1csc(NC(=O)N2CCOc3c(C)cc(-c4cccc(Cl)c4)nc32)n1: > 200%
- O=C1CCN(C(=O)Nc2ccccn2)c2nc(-c3cccc(C(F)(F)F)c3)ccc21: > 200%
- CN1CCN(C(=O)NC2CCOC2=O)c2nc(-c3cccc(C(F)(F)F)c3)ccc21 (stereo not drawn): ≤ 200%

Provide the documented Emax with SIRT1 (Homo sapiens, UniProt Q96EB6) as the system for O=C(Nc1cccc(OCC(O)CO)c1)N1CCC(F)(F)c2ccc(-c3cccc(C(F)(F)F)c3)nc21 (stereo not drawn)
> 200%

Provide the documented Emax with SIRT1 (Homo sapiens, UniProt Q96EB6) as the system for O=C(Nc1ccncc1)N1CCOc2ccc(-c3cccc(N4CCCC4)c3)nc21
> 200%

Provide the documented Emax with SIRT1 (Homo sapiens, UniProt Q96EB6) as the system for Cc1cncc(NC(=O)N2CCCOc3ccc(-c4cccc(C(F)(F)F)c4)nc32)c1
> 200%

----------
Here the recorded Emax is given for each entry.
testedSystem: SIRT1 (Homo sapiens, UniProt Q96EB6)
assayInfo: Mass spectrometry based assay to identify modulators of SIRT1 activity (deacetylation of p53-based acetylated peptide substrate)
Format: biochemical
conditionNotes: 25 min, SIRT1 activation, read-out: % FOLD ACT. (percent maximum fold activation)

Some solved entries appear below for comparison.
• O=C(Nc1ccncc1)N1CCCOc2ccc(-c3cccc(F)c3)nc21 [Compound 550] = > 200%
• O=C(Nc1ccnc(OC[C@H](O)CO)c1)N1CCCOc2ccc(-c3cccc(Cl)c3)nc21 [Compound 864] = > 200%
• Cc1cc(-c2cccc(C(F)(F)F)c2)nc2c1OCCN2C(=O)Nc1ccnc(N2CCC2)c1 [Compound 683] = > 200%

Provide the documented Emax with SIRT1 (Homo sapiens, UniProt Q96EB6) as the system for Cc1cc(NC(=O)N2CCOc3ccc(-c4cccc(C(F)(F)F)c4)nc32)cc(C)n1 [Compound 556]
> 200%

Provide the documented Emax with SIRT1 (Homo sapiens, UniProt Q96EB6) as the system for O=C(Nc1ncc(F)cc1F)N1CCOc2ccc(-c3cccc(C(F)(F)F)c3)nc21 [Compound 567]
> 200%

Provide the documented Emax with SIRT1 (Homo sapiens, UniProt Q96EB6) as the system for O=C(Nc1cccnn1)N1CCCOc2ccc(-c3cccc(Cl)c3)nc21 [Compound 867]
> 200%

Provide the documented Emax with SIRT1 (Homo sapiens, UniProt Q96EB6) as the system for Cc1cccc(NC(=O)N2CCCCc3ccc(-c4cccc(Cl)c4)nc32)n1 [Compound 733]
≤ 200%

Provide the documented Emax with SIRT1 (Homo sapiens, UniProt Q96EB6) as the system for O=C(Nc1ccncc1F)N1CCC(F)(F)c2ccc(-c3cccc(C(F)(F)F)c3)nc21 [Compound 746]
≤ 200%

Provide the documented Emax with SIRT1 (Homo sapiens, UniProt Q96EB6) as the system for CCN1CCCN(C(=O)Nc2ccnc(C)c2)c2nc(-c3cccc(Cl)c3)ccc21 [Compound 795]
> 200%

Provide the documented Emax with SIRT1 (Homo sapiens, UniProt Q96EB6) as the system for O=C(Nc1ccncc1)N1CCC(F)(F)c2ccc(-c3cccc(C(F)(F)F)c3)nc21 [Compound 743]
> 200%

Provide the documented Emax with SIRT1 (Homo sapiens, UniProt Q96EB6) as the system for O=C(Nc1ccncn1)N1CCOc2cnc(-c3cccc(C(F)(F)F)c3)nc21 [Compound 714]
≤ 200%

Provide the documented Emax with SIRT1 (Homo sapiens, UniProt Q96EB6) as the system for CC1CCN(C(=O)Nc2cncnc2)c2nc(-c3cccc(C(F)(F)F)c3)ccc21 (centres unmarked) [Compound 802]
> 200%

Provide the documented Emax with SIRT1 (Homo sapiens, UniProt Q96EB6) as the system for Cc1cc(NC(=O)N2CCCC(F)(F)c3ccc(-c4cccc(Cl)c4)nc32)ccn1 [Compound 773]
> 200%

Provide the documented Emax with SIRT1 (Homo sapiens, UniProt Q96EB6) as the system for O=C(Nc1ccnc(N2CCC2)c1)N1CCOc2cnc(-c3cccc(C(F)(F)F)c3)nc21 [Compound 713]
> 200%

Provide the documented Emax with SIRT1 (Homo sapiens, UniProt Q96EB6) as the system for CC1(C)CCN(C(=O)Nc2ccncc2)c2nc(-c3cccc(Cl)c3)ccc2C1=O [Compound 832]
≤ 200%

Provide the documented Emax with SIRT1 (Homo sapiens, UniProt Q96EB6) as the system for Cn1nccc1NC(=O)N1CCCOc2ccc(-c3cccc(Cl)c3)nc21 [Compound 706]
≤ 200%

Provide the documented Emax with SIRT1 (Homo sapiens, UniProt Q96EB6) as the system for Cc1csc(NC(=O)N2CCc3ccc(-c4cccc(C(F)(F)F)c4)nc32)n1 [Compound 851]
> 200%
